B1: CPEB3 Ribozyme (parent)
chain: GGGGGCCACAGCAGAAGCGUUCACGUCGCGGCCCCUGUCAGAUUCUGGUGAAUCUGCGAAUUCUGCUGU

# Variants of: B1
# test_summary: self-cleavage, relative activity (ratio to wild type); higher = more cleavage; co-transcriptional
Given measured self-cleavage, output T if it is greater than or equal to 0.2 and F if not.

# mutation_name, discrete_label
rows = [
    ("A8C G37C", "T"),
    ("G2C C39G", "F"),
    ("A13U G28U", "F"),
    ("G37C U38G", "T"),
    ("C7U C63G", "T"),
    ("U20A G65A", "F"),
    ("C24A U64G", "T"),
    ("C18A A60C", "F"),
    ("U21C U64A", "T"),
    ("C29A A59C", "T"),
    ("C7A A42G", "T"),
    ("G37U A59G", "T"),
]
